Tested on: L929
protocol.details: Cytotoxicity against mouse NCTC-929 cells assessed as reduction in cell viability after 48 hrs by resazurin dye-based assay
condition: L929, 48 h
pIC50: −log10 of the molar value.
measurement.kind: pIC50

Some solved entries appear below for comparison.
>  <compound>
NC1=NS(=O)(=O)N(Cc2ccccc2)c2nc(-c3ccccc3)n(Cc3ccccc3)c21

>  <result>
> 4.19

$$$$
>  <compound>
NC1=NS(=O)(=O)Nc2nc(CCc3ccccc3)[nH]c21

>  <result>
< 3.59

$$$$
>  <compound>
CC1CS(=O)(=O)CCN1/N=C/c1ccc([N+](=O)[O-])o1 (stereo not given) [NIFURTIMOX]

>  <result>
< 3.59

$$$$
>  <compound>
O=C(Cn1ccnc1[N+](=O)[O-])NCc1ccccc1 [BENZNIDAZOLE]

>  <result>
< 3.59

$$$$

Continue with the compound presented below.
Lookup: Report pIC50 for NC1=NS(=O)(=O)Nc2nc(C3CCCCC3)[nH]c21 please.
Found: < 3.59
